Entry source: patent US20210388087A1

Parameter: fold change of affinity. Scope: all listed entries.
# assay_system: T1, Human CD3eg linker (human)
# T1 construct: Single-chain construct; also called recombinant human CD3
# T1 chain: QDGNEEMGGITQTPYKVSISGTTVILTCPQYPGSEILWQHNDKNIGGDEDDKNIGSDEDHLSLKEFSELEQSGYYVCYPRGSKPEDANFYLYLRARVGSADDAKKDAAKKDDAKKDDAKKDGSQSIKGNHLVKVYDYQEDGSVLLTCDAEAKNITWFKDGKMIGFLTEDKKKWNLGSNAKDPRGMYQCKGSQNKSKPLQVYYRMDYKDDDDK
# assay_text: SPR; fold vs parent H183/L072
Give the value, in units of fold, as a plain number.

Past entries and their recorded results:
H183/L072 VL P56R (antibody, name in Kabat numbering, V domains shown) VH: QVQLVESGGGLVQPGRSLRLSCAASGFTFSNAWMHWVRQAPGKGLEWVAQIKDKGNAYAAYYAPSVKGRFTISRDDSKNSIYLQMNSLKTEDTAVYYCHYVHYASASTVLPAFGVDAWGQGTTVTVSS VL: DIVMTQSPLSLPVTPGEPASISCQASQELVHMNRNTYLHWYQQKPGQAPRLLIYKVSNRFRGVPDRFSGSGSGTDFTLKISRVEAEDVGVYYCAQGTSVPFTFGQGTKLEIK: 5.5
H183/L072 VL F55P (antibody, name in Kabat numbering, V domains shown) VH: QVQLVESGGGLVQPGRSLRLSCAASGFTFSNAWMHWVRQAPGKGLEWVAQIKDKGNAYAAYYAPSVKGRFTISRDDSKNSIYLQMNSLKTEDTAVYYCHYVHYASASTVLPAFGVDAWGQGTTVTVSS VL: DIVMTQSPLSLPVTPGEPASISCQASQELVHMNRNTYLHWYQQKPGQAPRLLIYKVSNRPPGVPDRFSGSGSGTDFTLKISRVEAEDVGVYYCAQGTSVPFTFGQGTKLEIK: 8.1

Alright, here's another binder for you.
query: Name the recorded fold change of affinity of the item H183/L072 VL M27eY (antibody, name in Kabat numbering, V domains shown) VH: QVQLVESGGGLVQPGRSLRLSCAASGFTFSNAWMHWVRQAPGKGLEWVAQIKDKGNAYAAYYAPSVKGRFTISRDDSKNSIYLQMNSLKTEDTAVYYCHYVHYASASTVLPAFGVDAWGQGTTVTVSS VL: DIVMTQSPLSLPVTPGEPASISCQASQELVHYNRNTYLHWYQQKPGQAPRLLIYKVSNRFPGVPDRFSGSGSGTDFTLKISRVEAEDVGVYYCAQGTSVPFTFGQGTKLEIK in your answer.
result: 0.9
